Entries annotated with measured % cells in cell cycle phase: aneuploid
- System: A549 cells
- assayText: Cell cycle assay in A549 cells
- Assay type: cell-based, human
- measurementSetup: A549 cells, 25 nM, 24 hours; relative to the untreated control cells in that phase
Give the number; % is assumed, so skip it.

Solved cases (2 shown):
[
  {
    "substance": "338637 (antisense TCAGAGCGGAGAGACACAAG; all 2'-MOE, all phosphorothioate, methylation of C not given here) [compound 338637]",
    "assayResult": 99
  },
  {
    "substance": "338769 (antisense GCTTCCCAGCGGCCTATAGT; all 2'-MOE, all phosphorothioate, methylation of C not given here) [compound 338769]",
    "assayResult": 101
  }
]

Entry 338836 (antisense TCCTCGGTGGCAGAGCTCAG; all 2'-MOE, all phosphorothioate, methylation of C not given here) [compound 338836] ; % cells in cell cycle phase: aneuploid = 99

# % cells in cell cycle phase: aneuploid (substance: 340350 (antisense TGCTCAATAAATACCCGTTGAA; all 2'-MOE, all phosphorothioate, methylation of C not given here) [compound 340350] ) is 120
